Entry source: patent US10206394B2

We begin with a simple list: items and their reported pest or weed control at 250 g/ha.
system: Lolium perenne (LOLPE); experiment: Glasshouse assay for herbicidal activity (pre- and post-emergence), percentage phytotoxicity; type: in vivo; conditions: Lolium perenne, post-emergence, 360 h, 250 g/ha; post-emergence; 15 DAA; visual assessment (100%=total damage, 0%=no damage); read-out: Post-emergence herbicidal activity (percentage phytotoxicity) LOLPE POST
PARAMETER_MEASURED: pest or weed control at 250 g/ha (%)

- Cc1cc(C)c(C2C(=O)CC(CC(=O)NCc3ccccc3Br)C2=O)c(C)c1 (stereo not shown): 80
- CCCCNC(=O)CC1CC(=O)C(c2c(C)cc(-c3ncc(F)cn3)cc2C)C1=O (stereo not shown): 100
- CC(C)=CCNC(=O)CC1CC(=O)C(c2c(C)cc(C)cc2C)C1=O (stereo not shown): 80
- Cc1cc(-c2ncc(F)cc2F)cc(C)c1C1C(=O)CC(CC(=O)NCc2cc(F)cc(F)c2)C1=O (stereo not shown): 100
- COCC(C)NC(=O)CC1CC(=O)C(c2c(C)cc(-c3ncc(Cl)cc3F)cc2C)C1=O (stereo not shown): 100
- Cc1cc(C)c(C2C(=O)CC(CC(=O)NC(C)(C)c3ccccc3)C2=O)c(C)c1 (stereo not shown): 70
- Cc1cc(OCC(F)(F)F)cc(C)c1C1C(=O)CC(CC(N)=O)C1=O (stereo not shown): 70
- Cc1cc(-c2ncccc2Cl)cc(C)c1C1C(=O)CC(CC(=O)NC(C)(C)C)C1=O (stereo not shown): 50
- Cc1cc(-c2ncc(C#N)cc2F)cc(C)c1C1C(=O)CC(CC(=O)NC(C)(C)C)C1=O (stereo not shown): 80
- Cc1cc(-c2ncc(Cl)cc2F)cc(C)c1C1C(=O)CC(CC(=O)NC(C)C)C1=O (stereo not shown): 100
- COc1ccc(CNC(=O)CC2CC(=O)C(c3c(C)cc(C)cc3C)C2=O)cc1 (stereo not shown): 100
- Cc1cc(-c2ncc(F)cc2F)cc(C)c1C1C(=O)C[C@@H](CC(=O)NC(C)(C)C)C1=O (stereo partly shown): 100
- Cc1cc(-n2ncc(Cl)c2C)cc(C)c1C1C(=O)CC(CC(=O)NC(C)(C)C)C1=O (stereo not shown): 70
- Cc1cc(-c2ncc(Cl)cc2F)cc(C)c1C1C(=O)CC(CC(=O)N2CCOCC2)C1=O (stereo not shown): 100
- CC#Cc1cc(C)c(C2C(=O)CC(CC(=O)NCCCOC)C2=O)c(C)c1 (stereo not shown): 100
- Cc1cc(C)c(C2C(=O)CC(CC(=O)NC(C)(C)CCl)C2=O)c(C)c1 (stereo not shown): 60

====

Reported pest or weed control at 250 g/ha is given for each of the following compounds.
Test system: Lolium perenne (LOLPE)
Experiment: Glasshouse assay for herbicidal activity (pre- and post-emergence), percentage phytotoxicity
Format: in vivo
Settings: Lolium perenne, post-emergence, 360 h, POST-emergence, rate 250 g/ha, visual score 15 DAA (100%=total damage, 0%=no damage); read-out: Post-emergence herbicidal activity (percentage phytotoxicity) LOLPE POST
Protocol: Test—Glasshouse Assay for Herbicidal Activity Seeds of a variety of monocotyledonous and dicotyledonous test plants are sown in standard soil in pots. The plants are cultivated for one day (for pre-emergence (PRE)) or for about 12 days (for post-emergence (POST)) under controlled conditions in a glasshouse (warm climate species at 24/18° C., cool climate species at 20/16° C., both at day/night; 16 hours light; 65% humidity). […]
PARAMETER_MEASURED: pest or weed control at 250 g/ha (%)

- Cc1cc(-c2ncc(F)cc2F)cc(C)c1C1C(=O)CC(CC(=O)NCc2ccc(C#N)cc2)C1=O (centres unmarked): 90
- CCc1cc(-n2cc(Cl)cn2)cc(C)c1C1C(=O)CC(CC(=O)N(C)CC)C1=O (centres unmarked): 100
- Cc1cc(OCC(F)(F)F)cc(C)c1C1C(=O)CC(CC(=O)NCc2ccc(C#N)cc2)C1=O (centres unmarked): 60
- CCc1cc(OCC(F)(F)F)cc(C)c1C1C(=O)CC(CC(=O)NC(C)C)C1=O (centres unmarked): 100
- Cc1cc(-c2ccc(Br)cn2)cc(C)c1C1C(=O)CC(CC(=O)NC(C)(C)C)C1=O (centres unmarked): 100
- Cc1cc(-c2ncc(F)cn2)cc(C)c1C1C(=O)CC(CC(=O)N2CCOCC2)C1=O (centres unmarked): 100
- Cc1cc(-c2ncc(F)cn2)cc(C)c1C1C(=O)CC(CC(=O)NC2CC2(F)F)C1=O (centres unmarked): 90
- Cc1cc(-c2ncc(F)cn2)cc(C)c1C1C(=O)CC(CC(=O)NC(C)C)C1=O (centres unmarked): 100
